# growth per record follows
# Test system: SW-620 colon
# assay details: NCI-60 one-dose screen, 48 h (100 = growth as untreated, 0 = no growth, -100 = all killed)
# recorded conditions: 10 µM unless noted
Compounds without any hit were thinned out: in the full panel of roughly 83,000, 20% have a hit.
readout: growth (%)

CC(C)OC(=O)c1ccc2[nH]c(O)c(C(=Nc3ccc(N(C)C(=O)CN4CCN(C)CC4)cc3)c3ccccc3)c2c1
-64.6
CCOC(=O)c1cc(C(=O)c2cc(OC)c(OC)c(OC)c2)n2ccc(-c3ccncc3)cc12
105
N#CC1C=CN(CC(N)=O)c2ccc3cccnc3c21 (stereo not given)
104
CCO/C=N/C1=C(C#N)C(c2ccc(OC)cc2)c2sc3c(F)cccc3c2O1 (stereo not given)
22.4
N#Cc1c(-c2cccs2)cc(-c2cccnc2)[nH]c1=O
101

* * *

# Test system: SNB-19 CNS
# assay details: NCI-60 one-dose screen, 48 h
# recorded conditions: 10 µM unless noted
Compounds without any hit were thinned out: in the full panel of roughly 83,000, 20% have a hit. Activity calls are given as the source filed them. The calls were made as follows: active = growth percent below 10; inactive = the rest.
Classes used: active, inactive

Cc1cccc(N2CCN(CC(O)COc3ccc(Cl)cc3)CC2)c1 (stereo not given)
inactive
Cc1cccc(Cl)c1NC(=O)c1ccc2nc(NC(=O)NCCN(C)C)sc2c1
inactive
Nc1c(C(=O)Nc2ccccc2Cl)sc2nc3c(cc12)C(O)CCC3 (stereo not given)
inactive
Cc1ccc(S(=O)(=O)N2CCCC2CO)cc1 (stereo not given)
inactive
O=[N+]([O-])C1C(c2ccccc2)C12c1ccccc1-c1ccccc12 (stereo not given)
inactive
CC(C)CCC[C@@H](C)[C@H]1CC[C@H]2[C@@H]3CC=C4C[C@@H](C(C(=O)O)C(=O)O)CC[C@]4(C)[C@H]3CC[C@]12C
inactive
COc1ccc2[nH]cc(-c3nc(-c4c[nH]c5ccncc45)cs3)c2c1
inactive
Cc1cnc(C(=O)NNc2nc3sc4c(c3c(=O)n2C)C(C)CCC4)cn1 (stereo not given)
active
Clc1ccc(Nc2nnc(COc3ccccc3)c3ccccc23)cc1
inactive
COCCn1cc(-c2nc(-c3cc4cccnc4n3CCOC)cs2)c2cc(OC)ccc21
inactive

* * *

# Test system: MCF7 breast
# assay details: NCI-60 one-dose screen, 48 h (100 = growth as untreated, 0 = no growth, -100 = all killed)
# recorded conditions: 10 µM unless noted
This is part of a sample that, as a whole, favours compounds with a hit. Of some 83,000 tested, about 20% had one in any assay. The source made the active and inactive calls. Rule for the calls: active = growth percent below 10; inactive = the rest.
# growth per record follows
readout: growth

CCOC(=O)C1=C(NC)OCC1=O
103% (inactive)
O=C(Nc1ccc(-c2nc(N3CCOCC3)c3cccn3n2)cc1)Nc1cccnc1
4.54% (active)
CCCCNc1ccc(C#N)c(OCCN(CC)CC)c1
93.8% (inactive)
CCc1ccc(C(=O)/C=C/C23c4ccccc4C(c4ccccc42)C2C(=O)NC(=O)C23)cc1 (stereo not given)
16.6% (inactive)
COC(=O)c1ccc2c(c1)C(=O)c1c-2n(CCCN)c(=O)c2cc([N+](=O)[O-])ccc12
-87.8% (active)
CCOC(=O)c1[nH]c(=O)c2c(C)nc(-c3ccccc3)cc2c1O
92.7% (inactive)
C=C1C(=O)O[C@H]2[C@H]1CC/C(COC(=O)NCc1cc[nH]c1)=C\CC[C@@]1(C)O[C@@H]21
34.8% (inactive)
O=C(O)c1[nH]c(=O)[nH]c(=O)c1[N+](=O)[O-]
98.8% (inactive)
Cc1ccccc1/C=C1\CN(C(=O)OC(C)(C)C)C/C(=C\c2ccccc2C)C1=O
19.2% (inactive)
COc1ccc(/C=N/C2=C(C#N)C(c3cccc(Cl)c3)c3c(ccc4ccccc34)O2)cc1 (stereo not given)
11.1% (inactive)

* * *

# System: A549/ATCC NSCLC
# assay details: NCI-60 one-dose screen, 48 h (100 = growth as untreated, 0 = no growth, -100 = all killed)
# recorded conditions: 10 µM unless noted
# Method: Growth inhibition of the A549/ATCC human Non-Small Cell Lung tumor cell line is measured as a screen for anti-cancer activity. Cells are grown in 96 well plates and exposed to the test compound for 48 hours. Compounds are tested at a single concentration, which is 10^-5 M for most compounds. The reported endpoint is percent growth (GI% or GIPRCNT), where numbers from 0 - 100% represent growth inhibition, and numbers from -100% - 0 represent cell death. […]
This is part of a sample that, as a whole, favours compounds with a hit. Of some 83,000 tested, about 20% had one in any assay.
readout: growth (%)

COc1ccc(C2c3sc4c(F)cccc4c3Oc3nc[nH]c(=O)c32)cc1 (stereo not given)
88.8
O=S(=O)(Nc1ccc(Cl)cc1)c1ccc(-c2cnc(C3CC3)o2)cc1
40.4
CNC(=O)c1c(NC(=O)c2ccc(C(F)(F)F)cc2)sc2c1CCC(=O)C2
13.7
CO/N=C(/C)c1ccc(NC(=O)CSc2nnc(-c3ccncc3)n2-c2ccccc2)cc1
68.4
COc1ccc2nc(NC(=O)CSc3nnc4n3S(=O)(=O)c3ccccc3N4C)sc2c1
77.9
COc1ccc2cc(C(=O)c3coc4ccc(O)cc34)ccc2c1
92.8
O=C(Nc1cc(Cl)ccc1O)c1ccc(Nc2ccnc(C(F)(F)F)c2)cc1
36.5
CCC(C)N(c1ccc(Cl)cc1)c1nc(-c2ccc(Br)cc2)cs1 (stereo not given)
95.6
Cc1nc2c(=O)[nH]c(SCC(=O)Nc3cccc(F)c3)nc2[nH]c1=O
106
COc1ccc(C(=O)C2C(c3ccc(OC)cc3)CN(C)C23C(=O)Nc2ccccc23)cc1 (stereo not given)
87.9
O=C(/C=C/c1ccc(Cl)cc1)c1cccc(Nc2nc(Nc3ccccc3)nc(Nc3ccccc3)n2)c1
81.8
Cc1ccccc1/C=C1\CN(C(=O)OC(C)(C)C)C/C(=C\c2ccccc2C)C1=O
49.1
CS(=O)(=O)c1cccc(-c2c(-c3cccc(OS(N)(=O)=O)c3)nc3sccn23)c1
106
COc1cc(CNC(=O)/C=C/C=C/c2ccc3c(c2)OCO3)ccc1OCc1cn(-c2ccc(C)c(C)c2)nn1
80.4
O=CC1(C2(C=O)c3ccccc3-c3ccccc32)c2ccccc2-c2ccccc21
-50.5
CCS/C(Nc1ccccc1)=C(\C#N)C(=O)N/N=C/c1ccc(Cl)cc1Cl
38.3
CCCCCCCCCCCCCCCC(N)c1ccccc1 (stereo not given)
31.9
COc1cccc(/C=C/C(=O)c2cc3c(N)c(C(=O)Nc4ccccc4)sc3nc2C)c1
34.3
Cc1ccccc1NC(=O)c1sc2nc(C)c(C(=O)/C=C/c3ccccc3)cc2c1N
14.3
Cc1nnc(-n2c(O)cc(=O)n(-c3ccccc3)c2=S)nc1/C=C/c1ccc(N(C)C)cc1
51.2

* * *

# System: HS 578T breast
# assay details: NCI-60 one-dose screen, 48 h (100 = growth as untreated, 0 = no growth, -100 = all killed)
# recorded conditions: 10 µM unless noted
The panel holds about 83,000 compounds, 20% with a hit somewhere; the sample as a whole holds those more often.
readout: growth (%)

CCN(c1ccc(Cl)cc1)c1nc(-c2ccc([N+](=O)[O-])cc2)cs1
87
CCC(C)N(c1ccc(Cl)cc1)c1nc(-c2ccc(Br)cc2)cs1 (stereo not given)
91.3
COc1ccc2[nH]cc(C(c3cc(F)cc(F)c3)c3c[nH]c4ccc(OC)cc34)c2c1
67.2
O=C1c2cccnc2C(=O)c2c1c(C(=O)NCCCN1CCCCC1)c1ccccn21
36.3
N#CC1=C(N)Oc2c(sc3c(F)cccc23)C1c1ccc(F)cc1 (stereo not given)
24.6

* * *

# Test system: SF-268 CNS
# assay details: NCI-60 one-dose screen, 48 h
# recorded conditions: 10 µM unless noted
This is part of a sample that, as a whole, favours compounds with a hit. Of some 83,000 tested, about 20% had one in any assay. Calls of active or inactive are those of the source. The calls were made as follows: active = growth percent below 10; inactive = the rest.
Classes used: 1.0 for active, 0.0 for inactive

O=Cc1ccc([N+](=O)[O-])s1
0.0
Cc1cc2c([nH]1)CSc1cc(S(=O)(=O)c3ccccc3)c(=O)[nH]c1-2
0.0
O=c1c2cc(-c3ccccc3)sc2nc2sc(-c3ccccc3)nn12
0.0
CCOC(=O)/C=C1\S/C(=N\Nc2cc(=O)[nH]c3ccc(Cl)cc23)N(c2ccccc2)C1=O
0.0
Cn1cc(-c2nonc2-c2c[nH]c3ccc(Br)cc23)c2cc(Br)ccc21
0.0
CN(Cc1ccc(C(F)(F)F)cc1)CC(O)C(=O)Nc1ccc(Cl)cc1 (stereo not given)
0.0
S=C(Nc1ccc(-c2nc(N3CCOCC3)c3cccn3n2)cc1)Nc1cccnc1
0.0
Cc1cc(N)c2cc(NC(=O)/C=C\c3ccccc3Cl)ccc2n1
1.0
Cc1ccc(-c2csc(NC(=O)CN3CCN(c4cc5c(cc4F)c(=O)c(C(=O)O)cn5C4CC4)CC3)n2)cc1
0.0
Cc1ccc(-n2c(=S)[nH]c3sc4c(c3c2=O)CCC(=O)C4)cc1
0.0
COc1cccc(NC(=O)Cn2cc(CN3CCN(c4ccnc5cc(Cl)ccc45)CC3)nn2)c1
0.0
COC(=O)/C(CCC=C(C)C)=C1\[C@@H](OC(C)=O)C[C@@]2(C)[C@H]1C[C@@H](O)[C@H]1[C@@]3(C)CC[C@H](NCCN)[C@@H](C)[C@@H]3CC[C@@]12C
0.0
CC/C(=C(/c1ccc(Cl)cc1)c1ccc(OCCN2CCCC2)cc1)c1ccc(OC)cc1
0.0
COc1ccc2nc3ccc(OC)cc3c(SCCCN)c2c1
0.0
O=c1oc2ccccc2cc1C1=NN=C(SCc2ccccc2)SC1
0.0
O=S(=O)(NCCNc1cc(-c2c(-c3cccc(O)c3)nc3sccn23)ccn1)c1ccc(C(F)(F)F)cc1
0.0
O=C1c2cccc(NCCN=Cc3cc(O)ccc3O)c2C(=O)c2c(NCCN=Cc3cc(O)ccc3O)cccc21
1.0
Cc1cc2c(O)c(-c3cc(Cl)ccc3Cl)c3sc(=O)oc3c2cc1C
0.0
O=C1c2cccnc2C(=O)c2c1c(C(=O)NCCn1ccnc1)c1ccccn21
0.0
COc1ccc2c(O)c(/C=C3\N=Nc4ccccc43)oc2c1C[C@@H]1CCNC[C@H]1F
0.0
